- Tested system: T1, human LAG-3 on cells (HEK293-hLAG-3 stable cell line) (human, UniProt P18627 23-525)
- T1 sequence: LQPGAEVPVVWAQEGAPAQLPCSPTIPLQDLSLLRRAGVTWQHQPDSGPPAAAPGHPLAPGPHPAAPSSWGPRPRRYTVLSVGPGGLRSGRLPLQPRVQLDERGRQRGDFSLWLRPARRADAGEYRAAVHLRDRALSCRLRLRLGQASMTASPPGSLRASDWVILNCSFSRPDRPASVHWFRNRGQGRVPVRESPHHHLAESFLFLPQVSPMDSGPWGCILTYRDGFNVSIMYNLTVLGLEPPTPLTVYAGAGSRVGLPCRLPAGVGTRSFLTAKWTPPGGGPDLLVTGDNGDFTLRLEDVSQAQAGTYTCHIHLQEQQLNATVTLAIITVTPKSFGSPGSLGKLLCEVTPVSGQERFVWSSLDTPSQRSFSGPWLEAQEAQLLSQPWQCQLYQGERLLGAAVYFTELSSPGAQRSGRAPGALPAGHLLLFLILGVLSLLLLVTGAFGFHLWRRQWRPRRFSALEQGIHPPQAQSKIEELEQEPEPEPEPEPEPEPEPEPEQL
- Assay notes: FACS, HEK293-hLAG-3, antibody 0.32 nM

Binder: 556F6B8-4 humanized antibody (antibody, V domains shown) VH: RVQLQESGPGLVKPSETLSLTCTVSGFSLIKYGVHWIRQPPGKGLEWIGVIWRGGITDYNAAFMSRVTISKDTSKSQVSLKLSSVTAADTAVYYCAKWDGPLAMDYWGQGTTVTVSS VL: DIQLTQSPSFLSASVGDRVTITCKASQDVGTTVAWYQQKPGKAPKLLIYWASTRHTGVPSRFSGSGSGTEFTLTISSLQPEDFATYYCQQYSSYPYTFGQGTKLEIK
Mean fluorescence intensity: 32

Binder: 556F6B8 mouse-human chimeric antibody (antibody, V domains shown, also called mAb123-556F6B8; 556F8B8) VH: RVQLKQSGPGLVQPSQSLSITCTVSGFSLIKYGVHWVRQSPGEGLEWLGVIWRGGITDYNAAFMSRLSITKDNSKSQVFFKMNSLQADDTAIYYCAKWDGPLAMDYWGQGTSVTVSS VL: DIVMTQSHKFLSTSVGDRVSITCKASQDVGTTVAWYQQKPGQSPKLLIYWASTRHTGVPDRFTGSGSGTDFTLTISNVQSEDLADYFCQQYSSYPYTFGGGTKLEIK
Mean fluorescence intensity: 29

Binder: 556F6B8-3 humanized antibody (antibody, V domains shown) VH: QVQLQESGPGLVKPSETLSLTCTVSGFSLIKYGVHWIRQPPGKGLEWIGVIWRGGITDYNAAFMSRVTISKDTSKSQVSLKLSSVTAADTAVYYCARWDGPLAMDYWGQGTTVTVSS VL: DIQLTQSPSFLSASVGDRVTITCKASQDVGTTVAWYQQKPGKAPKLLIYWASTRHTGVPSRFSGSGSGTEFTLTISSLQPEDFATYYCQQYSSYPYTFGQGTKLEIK
Mean fluorescence intensity: 49

Binder: 556F6B8-9 humanized antibody (antibody, V domains shown) VH: QVQLQESGPGLVKPSETLSLTCTVSGGSISKYGVHWIRQPPGKGLEWIGVIWRGGITDYNAAFMSRVTISVDTSKNQFSLKLSSVTAADTAVYYCARWDGPLAMDYWGQGTTVTVSS VL: DIVLTQSPSFLSASVGDRVTITCKASQDVGTTVAWYQQKPGKSPKLLIYWASTRHTGVPSRFSGSGSGTEFTLTISSLQPEDFATYYCQQYSSYPYTFGQGTKLEIK
Mean fluorescence intensity: 5

Binder: 556F6B8-12 humanized antibody (antibody, V domains shown) VH: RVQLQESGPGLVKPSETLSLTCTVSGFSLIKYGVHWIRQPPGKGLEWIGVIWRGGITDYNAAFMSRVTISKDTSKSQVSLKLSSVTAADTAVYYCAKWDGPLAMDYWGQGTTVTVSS VL: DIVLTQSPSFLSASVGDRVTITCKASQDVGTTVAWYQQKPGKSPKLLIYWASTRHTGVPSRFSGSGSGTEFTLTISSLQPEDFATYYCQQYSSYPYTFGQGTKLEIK
Mean fluorescence intensity: 36
